Data credit: patent US9023858B2

Assignment: determine reported lowering rate (%) of arachidonic acid/dihomo-γ-linolenic acid ratio for the given compounds.
# target-or-test-system: delta-5-desaturase (Mus musculus)
# Construct: the mice were anesthetized, and the liver was isolated; tissue CLEA Japan, Inc; host or cells: liver of C57BL/6J mice (in vivo dosing)
# Sequence (Q920L1 1-447): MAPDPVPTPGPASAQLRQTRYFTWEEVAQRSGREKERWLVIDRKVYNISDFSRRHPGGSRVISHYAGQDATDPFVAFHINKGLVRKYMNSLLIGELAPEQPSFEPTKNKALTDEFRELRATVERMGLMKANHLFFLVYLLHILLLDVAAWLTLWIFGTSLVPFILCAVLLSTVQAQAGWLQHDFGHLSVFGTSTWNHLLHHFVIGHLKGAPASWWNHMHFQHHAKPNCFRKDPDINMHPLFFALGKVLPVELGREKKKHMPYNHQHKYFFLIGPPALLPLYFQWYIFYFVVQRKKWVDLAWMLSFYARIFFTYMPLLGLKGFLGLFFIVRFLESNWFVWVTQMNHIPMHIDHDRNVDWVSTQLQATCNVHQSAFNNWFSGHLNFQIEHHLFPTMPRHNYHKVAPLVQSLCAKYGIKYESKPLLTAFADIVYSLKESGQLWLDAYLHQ
# assay-summary: Delta-5-desaturase inhibitory action in vivo (liver AA/DGLA ratio in mice)
# measurement-context: 3 mg/kg by gavage for 4 days; male C57BL/6J mice; liver phospholipid fraction; solvent administration group as 100%
Structures can show the parent of a compound that is named as a salt.
One number for each entry, in %.

# compound, target-or-test-system, value-reported
rows = [
    ("O=C1CCc2c(nc(CCC(F)(F)F)n(-c3ccc(OCC(F)(F)F)cc3)c2=O)N1", "delta-5-desaturase (Mus musculus)", 67),
    ("O=C1CCc2c(nc(OCC(F)(F)F)n(-c3ccc(OCC(F)(F)F)cc3)c2=O)N1", "delta-5-desaturase (Mus musculus)", 68),
    ("O=c1ccc2c(=O)n(-c3ccc(OCC(F)(F)F)cc3)c(OCC(F)(F)F)nc2[nH]1 [Example 12, sodium salt]", "delta-5-desaturase (Mus musculus)", 70),
    ("CCOc1nc2c(c(=O)n1-c1ccc(OCC(F)(F)F)cc1)CCC(=O)N2", "delta-5-desaturase (Mus musculus)", 67),
]

Now turn to the next compound.
Suppose we examine the compound `CCOc1nc2nc(OC)ccc2c(=O)n1-c1ccc(OCC(F)(F)F)cc1` ; what lowering rate (%) of arachidonic acid/dihomo-γ-linolenic acid ratio value has been reported? 64

* * *

# target-or-test-system: delta-5-desaturase (Rattus norvegicus, UniProt Q920R3)
# Construct: a rat liver microsome fraction (10 μl) diluted to 3 mg/ml with a microsome buffer; from tissue; host or cells: rat liver microsome fraction
# Sequence (Q920R3 whole entry): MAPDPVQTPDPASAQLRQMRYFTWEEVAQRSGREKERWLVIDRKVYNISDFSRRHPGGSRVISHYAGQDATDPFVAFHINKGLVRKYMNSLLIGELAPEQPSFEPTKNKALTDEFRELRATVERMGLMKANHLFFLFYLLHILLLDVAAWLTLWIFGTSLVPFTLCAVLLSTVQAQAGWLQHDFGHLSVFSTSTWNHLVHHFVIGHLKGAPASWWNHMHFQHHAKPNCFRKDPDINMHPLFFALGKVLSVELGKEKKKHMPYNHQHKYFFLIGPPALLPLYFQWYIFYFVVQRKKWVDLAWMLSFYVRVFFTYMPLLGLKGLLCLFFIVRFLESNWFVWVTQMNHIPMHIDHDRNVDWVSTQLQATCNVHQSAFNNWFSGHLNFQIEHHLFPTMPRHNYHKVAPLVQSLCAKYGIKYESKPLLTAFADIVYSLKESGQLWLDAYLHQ
# assay-summary: Inhibitory activity on binding of [3H]-labelled Reference Example 1 ligand to delta-5-desaturase (rat liver microsome fraction)
# measurement-context: test compound 10 μM, 3 nM tritiated ligand of Reference Example 1, read-out: Binding inhibitory activity against compound bind to delta-5-desaturase Binding inhibition rate (%) at 10 μM
Assignment: determine reported inhibition at 10 µM for the given compounds.
Answers are plain numbers, in %.

Use these answered entries as a reference point.
# compound-structure-string, result-unit, inhibition at 10 µM
measured = [
    ("CCSc1nc2nc(OC)ccc2c(=O)n1-c1ccc(OCC(F)(F)F)cc1", "%", 94),
    ("CCSc1nc2c(OC)nccc2c(=O)n1-c1ccc(OCC(F)(F)F)cc1", "%", 96),
    ("COc1ccc2c(=O)n(-c3ccc(OCC(F)(F)F)cc3)c(OCC(F)(F)F)nc2n1", "%", 93),
    ("CCOc1nc2c(c(=O)n1-c1ccc(OCC(F)(F)F)cc1)CCC(=O)N2", "%", 91),
    ("O=c1[nH]ccc2c(=O)n(-c3ccc(OCC(F)(F)F)cc3)c(OCC(F)(F)F)nc12", "%", 98),
]

Field: inhibition at 10 µM. Fill in for each record below.
1. O=C1CCc2c(nc(OCC(F)(F)F)n(-c3ccc(OCC(F)(F)F)cc3)c2=O)N1
2. CCCc1nc2c(c(=O)n1-c1ccc(OCC(F)(F)F)cc1)CCC(=O)N2
3. CCOc1nc2[nH]c(=O)ccc2c(=O)n1-c1ccc(OCC(F)(F)F)cc1

1. 92
2. 89
3. 96

Field: inhibition at 10 µM. Fill in for each record below.
1. O=C1CCc2c(nc(CCC(F)(F)F)n(-c3ccc(OCC(F)(F)F)cc3)c2=O)N1
2. CCSc1nc2nc(C(N)=O)ccc2c(=O)n1-c1ccc(OCC(F)(F)F)cc1
3. CCOc1nc2c(=O)[nH]ccc2c(=O)n1-c1ccc(OCC(F)(F)F)cc1
4. CCSc1nc2c(c(=O)n1-c1ccc(OCC(F)(F)F)cc1)CCNC2=O
5. COCCOc1nccc2c(=O)n(-c3ccc(OCC(F)(F)F)cc3)c(OCCOC)nc12

1: 91; 2: 93; 3: 98; 4: 92; 5: 89

Field: inhibition at 10 µM. Fill in for each record below.
1. CCCSc1nc2c(=O)[nH]ccc2c(=O)n1-c1ccc(OCC(F)(F)F)cc1
2. CCOc1nc2nc(OC)ccc2c(=O)n1-c1ccc(OCC(F)(F)F)cc1

97
99

Field: inhibition at 10 µM. Fill in for each record below.
1. CCSc1nc2nc(OC)cnc2c(=O)n1-c1ccc(OCC(F)(F)F)cc1
2. O=c1ccc2c(=O)n(-c3ccc(OCC(F)(F)F)cc3)c(OCC(F)(F)F)nc2[nH]1
3. CCSc1nc2c(=O)n(C)ccc2c(=O)n1-c1ccc(OCC(F)(F)F)cc1
4. COc1ccc2c(=O)n(-c3ccc(OCC(F)(F)F)cc3)c(SC)nc2n1

[97, 95, 101, 94]

Field: inhibition at 10 µM. Fill in for each record below.
1. O=c1ccc2c(=O)n(-c3ccc(OCC(F)(F)F)cc3)c(OCC(F)F)nc2[nH]1
2. O=c1ccc2c(=O)n(-c3ccc(OCC(F)(F)F)cc3)c(OCC(F)(F)CO)nc2[nH]1
3. CC(C)Oc1nc2[nH]c(=O)ccc2c(=O)n1-c1ccc(OCC(F)(F)F)cc1
4. CS(=O)(=O)CCCOc1nc2[nH]c(=O)ccc2c(=O)n1-c1ccc(OCC(F)(F)F)cc1
5. CCSc1nc2c(c(=O)n1-c1ccc(OCC(F)(F)F)cc1)CCC(=O)N2
6. CCSc1nc2[nH]c(=O)ccc2c(=O)n1-c1ccc(OCC(F)(F)F)cc1

[96, 99, 97, 89, 95, 97]

Field: inhibition at 10 µM. Fill in for each record below.
1. CCNc1nc2[nH]c(=O)ccc2c(=O)n1-c1ccc(OCC(F)(F)F)cc1
2. CCSc1nc2c(ccc(=O)n2C)c(=O)n1-c1ccc(OCC(F)(F)F)cc1
3. CCSc1nc2nc(N)ccc2c(=O)n1-c1ccc(OCC(F)(F)F)cc1
4. CCCSc1nc2nc(OC)ccc2c(=O)n1-c1ccc(OCC(F)(F)F)cc1
5. CCSc1nc2[nH]c(=O)cnc2c(=O)n1-c1ccc(OCC(F)(F)F)cc1
6. CCOc1nc2c(OCCOC)nccc2c(=O)n1-c1ccc(OCC(F)(F)F)cc1
7. O=c1ccc2c(=O)n(-c3ccc(OCC(F)(F)F)cc3)c(OC3CCC(F)(F)CC3)nc2[nH]1
8. CSc1nc2c(c(=O)n1-c1ccc(OCC(F)(F)F)cc1)CCC(=O)N2

1: 85; 2: 96; 3: 96; 4: 97; 5: 91; 6: 88; 7: 99; 8: 93

Field: inhibition at 10 µM. Fill in for each record below.
1. CCSc1nc2c(=O)[nH]ccc2c(=O)n1-c1ccc(OCC(F)(F)F)cc1
2. COc1nc2[nH]c(=O)ccc2c(=O)n1-c1ccc(OCC(F)(F)F)cc1
3. CCSc1nc2c(c(=O)n1-c1ccc(OCC(F)(F)F)cc1)SCC(=O)N2

[97, 84, 98]
